Listed here: items and their measured TGI.
# System: UACC-257 melanoma
# experiment: NCI tumour cell line growth inhibition, 48 h

{"compound": "O=Nc1c(O)cc(Nc2ccc(Br)cc2)c2ccccc12", "TGI": "3.33 µM"}
{"compound": "O=S(=O)(O)c1ccc(O)c2ncc(Cl)cc12", "TGI": "> 100 µM"}
{"compound": "CC(C)(Br)C(Br)CCC(C)(Br)C(Br)CO (stereo not given)", "TGI": "> 10 µM"}
{"compound": "CCCCCCCCN=C(N)c1ccc(N2CCN(c3ccc(C(N)=NCCCCCCCC)cc3)CC2)cc1", "TGI": "13.2 µM"}
{"compound": "O=C(C1OC1c1ccc(O)cc1)C12CC3CC(CC(C3)C1)C2 (stereo not given)", "TGI": "> 100 µM"}
{"compound": "CCCCCCCCCCCC(=O)Oc1c(Cl)cc(Cl)c(OC(=O)C(=O)Oc2c(Cl)cc(Cl)c(OC(=O)CCCCCCCCCCC)c2Cl)c1Cl", "TGI": "> 100 µM"}
{"compound": "O=[N+]([O-])c1ccc(-c2csc3nc(-c4ccccc4)nn23)cc1", "TGI": "> 100 µM"}
{"compound": "CCCC1(NC(=O)C(F)(F)F)CC(OC)OC2COC(c3ccccc3)OC21 (stereo not given)", "TGI": "> 100 µM"}
{"compound": "O=C(/C=C/c1ccccc1)c1cc(Br)ccc1O", "TGI": "27.9 µM"}
{"compound": "CC1OC(O[C@@H]2OC=C(C=O)[C@@]3(O)CC[C@H](C)[C@@H]23)C(O)C(O)C1O (stereo not given in full)", "TGI": "> 100 µM"}
